test system: CPG-ds27 (DNA, hairpin) CGCGAATTCGCGTTTCGCGAATTCGCG; assay: G4-CPG affinity chromatography; details: 50 mM KCl; washing solution with 10% DMSO, 10% ethanol; oligonucleotide on CPG; errors within ± 2%
Quantity: Bound Ligand (%)

Some solved entries appear below for comparison.
Smiles | Bound Ligand (%)
CN(C)CCCN1C(=O)c2cc(NCCCCCCCNc3cc4c5c(ccc6c5c3C(=O)N(CCCCCC(=O)O)C6=O)C(=O)N(CCCCCC(=O)O)C4=O)c3c4c(cc(Br)c(c24)C1=O)C(=O)N(CCCN(C)C)C3=O | 71
CN(C)CCCN1C(=O)c2cc(NCCOCCOCCNc3cc4c5c(c(Br)cc6c5c3C(=O)N(CCCCCC(=O)O)C6=O)C(=O)N(CCCCCC(=O)O)C4=O)c3c4c(cc(Br)c(c24)C1=O)C(=O)N(CCCN(C)C)C3=O | 38
CN(C)CCCN1C(=O)c2ccc3c4c(c(NCCCCCCCNc5cc6c7c(ccc8c7c5C(=O)N(CCCCCC(=O)O)C8=O)C(=O)N(CCCCCC(=O)O)C6=O)cc(c24)C1=O)C(=O)N(CCCN(C)C)C3=O | 61

A. CN(C)CCCNc1cc2c3c(c(NCCOCCOCCNc4cc5c6c(ccc7c6c4C(=O)N(CCCCCC(=O)O)C7=O)C(=O)N(CCCCCC(=O)O)C5=O)cc4c3c1C(=O)N(CCCN(C)C)C4=O)C(=O)N(CCCN(C)C)C2=O
B. CN(C)CCCN1C(=O)c2ccc3c4c(c(NCCOCCOCCN)cc(c24)C1=O)C(=O)N(CCCN(C)C)C3=O
Select the item whose Bound Ligand (%) value is smaller, choosing between A and B . Returns: label corresponding to the selected item.
B
(B: 41%, A: 71%)

###

test system: CPG-cmyc (DNA, G4) TGGGGAGGGTGGGGAGGGTGGGGAAGGTGGGGA; assay: G4-CPG affinity chromatography; conditions: 50 mM KCl; washing solution with 10% DMSO, 10% ethanol; oligonucleotide on CPG; errors within ± 2%
Quantity: Bound Ligand (%)

Some solved entries appear below for comparison.
Smiles | Bound Ligand (%)
CN(C)CCCN1C(=O)c2ccc3c4c(c(NCCOCCOCCNc5cc6c7c(c(Br)cc8c7c5C(=O)N(CCCCCC(=O)O)C8=O)C(=O)N(CCCCCC(=O)O)C6=O)cc(c24)C1=O)C(=O)N(CCCN(C)C)C3=O | 79
CN(C)CCCN1C(=O)c2ccc3c4c(c(NCCCCCCCN)cc(c24)C1=O)C(=O)N(CCCN(C)C)C3=O | 97
CN(C)CCCN1C(=O)c2ccc3c4c(c(NCCOCCOCCNc5cc6c7c(ccc8c7c5C(=O)N(CCCCCC(=O)O)C8=O)C(=O)N(CCCCCC(=O)O)C6=O)cc(c24)C1=O)C(=O)N(CCCN(C)C)C3=O | 79
CN(C)CCCN1C(=O)c2cc(NCCCCCCCNc3cc4c5c(ccc6c5c3C(=O)N(CCCCCC(=O)O)C6=O)C(=O)N(CCCCCC(=O)O)C4=O)c3c4c(cc(Br)c(c24)C1=O)C(=O)N(CCCN(C)C)C3=O | 79
CN(C)CCCNc1cc2c3c(c(NCCOCCOCCNc4cc5c6c(ccc7c6c4C(=O)N(CCCCCC(=O)O)C7=O)C(=O)N(CCCCCC(=O)O)C5=O)cc4c3c1C(=O)N(CCCN(C)C)C4=O)C(=O)N(CCCN(C)C)C2=O | 87
CN(C)CCCN1C(=O)c2ccc3c4c(c(NCCOCCO)cc(c24)C1=O)C(=O)N(CCCN(C)C)C3=O | 99

a. CCCNc1cc2c3c(ccc4c3c1C(=O)N(CCCN(C)C)C4=O)C(=O)N(CCCN(C)C)C2=O
b. CN(C)CCCN1C(=O)c2cc(NCCOCCOCCNc3cc4c5c(ccc6c5c3C(=O)N(CCCCCC(=O)O)C6=O)C(=O)N(CCCCCC(=O)O)C4=O)c3c4c(cc(Br)c(c24)C1=O)C(=O)N(CCCN(C)C)C3=O
API: POST /compare with a and b ; response names the item with higher Bound Ligand (%). Returns: label corresponding to the selected item.
a

###

test system: CPG-tel26 (DNA, G4) TTAGGGTTAGGGTTAGGGTTAGGGTT; assay: G4-CPG affinity chromatography; conditions: 50 mM KCl; washing solution with 10% DMSO, 10% ethanol; oligonucleotide on CPG; errors within ± 2%
Quantity: Bound Ligand (%)

Smiles | Endpoint Result
CN(C)CCCN1C(=O)c2ccc3c4c(c(NCCCCCCCNc5cc6c7c(ccc8c7c5C(=O)N(CCCCCC(=O)O)C8=O)C(=O)N(CCCCCC(=O)O)C6=O)cc(c24)C1=O)C(=O)N(CCCN(C)C)C3=O | 77
CCCNc1cc2c3c(ccc4c3c1C(=O)N(CCCN(C)C)C4=O)C(=O)N(CCCN(C)C)C2=O | 85
CN(C)CCCNc1cc2c3c(c(NCCOCCOCCNc4cc5c6c(ccc7c6c4C(=O)N(CCCCCC(=O)O)C7=O)C(=O)N(CCCCCC(=O)O)C5=O)cc4c3c1C(=O)N(CCCN(C)C)C4=O)C(=O)N(CCCN(C)C)C2=O | 90
CN(C)CCCN1C(=O)c2cc(NCCOCCOCCNc3cc4c5c(ccc6c5c3C(=O)N(CCCCCC(=O)O)C6=O)C(=O)N(CCCCCC(=O)O)C4=O)c3c4c(cc(Br)c(c24)C1=O)C(=O)N(CCCN(C)C)C3=O | 67
CN(C)CCCN1C(=O)c2ccc3c4c(c(NCCOCCO)cc(c24)C1=O)C(=O)N(CCCN(C)C)C3=O | 99
CN(C)CCCN1C(=O)c2cc(NCCOCCOCCNc3cc4c5c(c(Br)cc6c5c3C(=O)N(CCCCCC(=O)O)C6=O)C(=O)N(CCCCCC(=O)O)C4=O)c3c4c(cc(Br)c(c24)C1=O)C(=O)N(CCCN(C)C)C3=O | 73
CN(C)CCCN1C(=O)c2ccc3c4c(c(NCCOCCOCCNc5cc6c7c(ccc8c7c5C(=O)N(CCCCCC(=O)O)C8=O)C(=O)N(CCCCCC(=O)O)C6=O)cc(c24)C1=O)C(=O)N(CCCN(C)C)C3=O | 85
CN(C)CCCN1C(=O)c2ccc3c4c(c(NCCCCCCCN)cc(c24)C1=O)C(=O)N(CCCN(C)C)C3=O | 100
CN(C)CCCN1C(=O)c2ccc3c4c(c(NCCOCCOCCNc5cc6c7c(c(Br)cc8c7c5C(=O)N(CCCCCC(=O)O)C8=O)C(=O)N(CCCCCC(=O)O)C6=O)cc(c24)C1=O)C(=O)N(CCCN(C)C)C3=O | 68
CCCNc1cc2c3c(c(NCCCN(C)C)cc4c3c1C(=O)N(CCCN(C)C)C4=O)C(=O)N(CCCN(C)C)C2=O | 92
CN(C)CCCN1C(=O)c2ccc3c4c(c(NCCOCCOCCN)cc(c24)C1=O)C(=O)N(CCCN(C)C)C3=O | 97
CN(C)CCCN1C(=O)c2cc(NCCCCCCCNc3cc4c5c(ccc6c5c3C(=O)N(CCCCCC(=O)O)C6=O)C(=O)N(CCCCCC(=O)O)C4=O)c3c4c(cc(Br)c(c24)C1=O)C(=O)N(CCCN(C)C)C3=O | 75

###

test system: CPG-ds27 (DNA, hairpin) CGCGAATTCGCGTTTCGCGAATTCGCG; test: G4-CPG affinity chromatography; settings: 50 mM KCl; washing solution with 10% DMSO, 10% ethanol; oligonucleotide on CPG; errors within ± 2%
Quantity: Bound Ligand (%)

Some solved entries appear below for comparison.
Smiles | Display Unit | Bound Ligand (%)
CN(C)CCCN1C(=O)c2ccc3c4c(c(NCCOCCOCCNc5cc6c7c(c(Br)cc8c7c5C(=O)N(CCCCCC(=O)O)C8=O)C(=O)N(CCCCCC(=O)O)C6=O)cc(c24)C1=O)C(=O)N(CCCN(C)C)C3=O | % | 33
CCCNc1cc2c3c(c(NCCCN(C)C)cc4c3c1C(=O)N(CCCN(C)C)C4=O)C(=O)N(CCCN(C)C)C2=O | % | 46
CN(C)CCCN1C(=O)c2ccc3c4c(c(NCCOCCOCCNc5cc6c7c(ccc8c7c5C(=O)N(CCCCCC(=O)O)C8=O)C(=O)N(CCCCCC(=O)O)C6=O)cc(c24)C1=O)C(=O)N(CCCN(C)C)C3=O | % | 34
CN(C)CCCN1C(=O)c2ccc3c4c(c(NCCOCCO)cc(c24)C1=O)C(=O)N(CCCN(C)C)C3=O | % | 30
CCCNc1cc2c3c(ccc4c3c1C(=O)N(CCCN(C)C)C4=O)C(=O)N(CCCN(C)C)C2=O | % | 50

I. CN(C)CCCN1C(=O)c2ccc3c4c(c(NCCCCCCCN)cc(c24)C1=O)C(=O)N(CCCN(C)C)C3=O
II. CN(C)CCCN1C(=O)c2cc(NCCOCCOCCNc3cc4c5c(ccc6c5c3C(=O)N(CCCCCC(=O)O)C6=O)C(=O)N(CCCCCC(=O)O)C4=O)c3c4c(cc(Br)c(c24)C1=O)C(=O)N(CCCN(C)C)C3=O
Select the item whose Bound Ligand (%) value is smaller, choosing between I and II . Returns: label corresponding to the selected item.
II
